These data points were gathered from ChEMBL document CHEMBL1146321.

system_under_test: Delta-type opioid receptor (Rattus norvegicus, UniProt P33533)
Sequence (P33533 whole entry): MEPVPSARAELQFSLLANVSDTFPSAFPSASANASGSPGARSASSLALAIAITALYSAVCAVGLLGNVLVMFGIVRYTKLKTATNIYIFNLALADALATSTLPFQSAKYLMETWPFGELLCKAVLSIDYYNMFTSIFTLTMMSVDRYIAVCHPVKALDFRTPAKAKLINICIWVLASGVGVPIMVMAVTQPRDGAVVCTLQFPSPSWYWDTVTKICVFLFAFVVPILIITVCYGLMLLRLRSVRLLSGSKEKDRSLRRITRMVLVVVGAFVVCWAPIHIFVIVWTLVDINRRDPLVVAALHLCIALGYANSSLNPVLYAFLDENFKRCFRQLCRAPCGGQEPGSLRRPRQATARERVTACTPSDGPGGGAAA
protocol: Displacement of [3H]deltorphin 2 from delta opioid receptor in rat brain P2 synaptosome
measured_parameter: pKi
Convention used: pKi is expressed as -log10 of the molar concentration.

For orientation, consider the following solved cases.
# compound, pKi
measured = [
    ("C=CCN[C@@H](Cc1c(C)cc(O)cc1C)C(=O)N1CCC[C@H]1C(=O)N[C@@H](Cc1ccccc1)C(=O)N[C@@H](Cc1ccccc1)C(N)=O", 6.25),
    ("C=CCN[C@@H](Cc1c(C)cc(O)cc1C)C(=O)N1CCC[C@H]1C(=O)N[C@@H](Cc1c[nH]c2ccccc12)C(=O)N[C@@H](Cc1ccccc1)C(N)=O", 7.99),
]

Switching to the query record.
# input Can you share its pKi? I mean this molecule: Cc1cc(O)cc(C)c1C[C@H](N)C(=O)N1CCC[C@H]1C(=O)N[C@@H](Cc1c[nH]c2ccccc12)C(=O)N[C@@H](Cc1ccccc1)C(N)=O
# output 8.25
